# tgt: TNFα / TNFα receptor (TNFα R1/Fc) (Homo sapiens, UniProt P01375)
# Construct: purchased R&D Systems
# Sequence (P01375 77-233 limits assumed, species assumed): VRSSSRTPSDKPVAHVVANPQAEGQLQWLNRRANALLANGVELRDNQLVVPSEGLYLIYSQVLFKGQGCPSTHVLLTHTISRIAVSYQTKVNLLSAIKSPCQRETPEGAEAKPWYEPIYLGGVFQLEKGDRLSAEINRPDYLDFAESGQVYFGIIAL
# assay_comment: Inhibition of binding of TNFα to the TNFα receptor (plate ELISA competition)
# setup_conditions: Table 2; read-out: Activity (IC50, inhibition of TNFα binding to TNFα R1/Fc)
Numbered stars: 1 amine (or outer) side, 2 acyl side, 3 side chain; on linkers, the order of the positions; unused ones are H or OH. Bridge positions count the residues as written; N and C are the ends. Square brackets hold non-standard residues; d marks the D form. Peptide text beside a SMILES is read from it. Phe(4-CF3) = N[C@@H](Cc1ccc(C(F)(F)F)cc1)C(=O)O; Phe(4-NH2) = Nc1ccc(C[C@H](N)C(=O)O)cc1; d2Nal = N[C@H](Cc1ccc2ccccc2c1)C(=O)O; Suc = O=C(CCC(=O)[*:2])[*:1]
Below, each entry is listed alongside its reported IC50.

# compound, IC50
measured = [
    ("N#Cc1ccccc1C[C@H]1NC(=O)[C@H](O)[C@@H](O)C(=O)Nc2ccc(cc2)C[C@@H](C(=O)O)NC(=O)[C@@H](Cc2ccccc2)NC(=O)[C@H](Cc2ccc(-c3ccccc3)cc2)NC1=O [Compound 314]", "10 to 30 µM"),
    ("O=C1CCC(=O)N[C@H](Cc2ccc3ccccc3c2)C(=O)N[C@@H](Cc2ccc(C(F)(F)F)cc2)C(=O)N[C@H](Cc2ccccc2)C(=O)N[C@H](C(=O)O)Cc2ccc(cc2)N1 [Compound 143] ([d2Nal][Phe(4-CF3)][dF][Phe(4-NH2)]-OH; linker N-4 via Suc)", "> 100 µM"),
    ("O=C1COc2ccc(cc2)C[C@@H](C(=O)O)NC(=O)[C@H](Cc2ccccc2)NC(=O)[C@@H](Cc2ccc(Br)cc2)NC(=O)[C@H](Cc2cccs2)N1 [Compound 399]", "> 100 µM"),
    ("O=C(O)CCCNC(=O)[C@@H]1Cc2ccc(cc2)OCC(=O)N[C@@H](Cc2c[nH]c3ccccc23)C(=O)N[C@H](Cc2ccc(-c3ccccc3)cc2)C(=O)N[C@@H](Cc2c[nH]c3ccccc23)C(=O)N1 [Compound 721]", "< 10 µM"),
]
